# assayed-target: tetanus neurotoxin (TeNT), authentic tetanus holotoxin (Clostridium tetani, UniProt P04958 2-1315)
# Sequence (P04958 2-457 limits assumed, chain 1 of 2): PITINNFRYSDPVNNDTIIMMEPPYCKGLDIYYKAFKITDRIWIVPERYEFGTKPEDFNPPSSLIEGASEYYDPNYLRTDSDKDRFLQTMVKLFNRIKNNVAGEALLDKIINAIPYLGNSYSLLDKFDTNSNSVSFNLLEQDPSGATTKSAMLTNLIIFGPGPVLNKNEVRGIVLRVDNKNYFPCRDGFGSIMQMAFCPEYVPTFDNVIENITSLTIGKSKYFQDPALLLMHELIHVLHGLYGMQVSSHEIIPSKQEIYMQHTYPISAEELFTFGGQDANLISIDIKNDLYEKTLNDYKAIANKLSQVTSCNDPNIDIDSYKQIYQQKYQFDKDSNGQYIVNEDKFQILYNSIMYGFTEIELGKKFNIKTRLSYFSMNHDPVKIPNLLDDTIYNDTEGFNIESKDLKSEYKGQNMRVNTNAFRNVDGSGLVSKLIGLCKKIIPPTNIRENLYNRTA
# Sequence (P04958 458-1315 limits assumed, chain 2 of 2): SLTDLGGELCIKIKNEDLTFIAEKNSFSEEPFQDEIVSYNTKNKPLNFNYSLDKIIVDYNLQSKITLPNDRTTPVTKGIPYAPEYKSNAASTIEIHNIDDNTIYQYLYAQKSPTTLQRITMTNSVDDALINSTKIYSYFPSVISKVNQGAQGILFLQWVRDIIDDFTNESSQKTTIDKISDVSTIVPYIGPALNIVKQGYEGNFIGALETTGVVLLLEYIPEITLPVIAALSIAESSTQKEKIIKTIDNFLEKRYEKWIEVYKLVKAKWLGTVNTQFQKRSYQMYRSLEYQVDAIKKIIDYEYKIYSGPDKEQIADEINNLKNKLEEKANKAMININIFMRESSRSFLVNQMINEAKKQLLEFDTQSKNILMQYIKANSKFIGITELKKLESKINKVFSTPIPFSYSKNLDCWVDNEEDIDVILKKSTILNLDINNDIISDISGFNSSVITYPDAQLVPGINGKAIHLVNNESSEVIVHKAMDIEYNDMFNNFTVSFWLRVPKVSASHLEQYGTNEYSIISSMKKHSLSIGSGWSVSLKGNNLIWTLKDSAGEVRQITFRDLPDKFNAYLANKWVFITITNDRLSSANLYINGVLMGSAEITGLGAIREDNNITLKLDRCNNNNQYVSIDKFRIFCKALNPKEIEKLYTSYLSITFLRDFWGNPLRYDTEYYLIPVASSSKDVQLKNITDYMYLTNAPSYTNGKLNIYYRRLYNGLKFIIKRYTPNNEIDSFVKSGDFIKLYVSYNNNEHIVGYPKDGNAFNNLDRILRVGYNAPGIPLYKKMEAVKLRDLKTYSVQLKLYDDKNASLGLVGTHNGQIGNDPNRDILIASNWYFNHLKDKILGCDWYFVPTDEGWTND
# method-description: ELISA, directly coated TeNT, unlabelled binder
Answer each item with its documented EC resulting in A450 0.2.
The figure you give is taken to be in ng/mL; do not add the unit.

What measured EC resulting in A450 0.2 goes with SVT34L (VHH) VHH: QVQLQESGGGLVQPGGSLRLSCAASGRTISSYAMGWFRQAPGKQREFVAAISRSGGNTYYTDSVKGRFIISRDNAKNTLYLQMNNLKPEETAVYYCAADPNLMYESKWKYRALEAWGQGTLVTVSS ?
1

I have this binder here, SVT25L (VHH) VHH: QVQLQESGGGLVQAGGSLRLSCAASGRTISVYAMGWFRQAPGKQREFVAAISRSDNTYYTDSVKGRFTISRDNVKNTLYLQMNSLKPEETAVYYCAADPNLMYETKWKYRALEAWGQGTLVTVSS , and I need its recorded EC resulting in A450 0.2.
3.6

Tell me the measured EC resulting in A450 0.2 of SVT20L (VHH) VHH: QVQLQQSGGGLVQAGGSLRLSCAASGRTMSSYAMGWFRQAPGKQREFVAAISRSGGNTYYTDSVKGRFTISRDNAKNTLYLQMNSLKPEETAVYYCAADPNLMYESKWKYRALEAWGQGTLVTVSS , please.
1.2

Give its EC resulting in A450 0.2 value. Item: SVT15L-3FW4M (VHH) VHH: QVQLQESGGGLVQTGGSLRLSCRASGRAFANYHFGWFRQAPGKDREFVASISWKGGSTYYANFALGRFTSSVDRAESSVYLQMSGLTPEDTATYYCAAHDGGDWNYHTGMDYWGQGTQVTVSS
3.8

Form field: reported EC resulting in A450 0.2 of SVT13L (VHH) VHH: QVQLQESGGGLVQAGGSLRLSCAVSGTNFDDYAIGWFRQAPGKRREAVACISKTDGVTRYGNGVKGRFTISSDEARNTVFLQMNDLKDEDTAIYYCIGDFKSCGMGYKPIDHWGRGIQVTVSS
1.9
